CC50: recorded values
# Tested on: Nucleic Acid
# methodSummary: Inhibitory concentration against DNA-bound ethidium for cytotoxicity
# Type: functional

Look up CC50: Cc1nc(-c2c3ccccc3nc3ccccc23)sc1CCOC(=O)c1ccc(/N=N/Nc2ccc(C(=O)OCCN(C)C)cc2)cc1
3.6 µM

Look up CC50: COc1cc(NS(C)(=O)=O)ccc1Nc1c2ccccc2nc2ccccc12
8.9 µM

***
Look up CC50: Cc1nc(-c2c3ccccc3nc3ccccc23)sc1CCO
190 µM

Look up CC50: Cc1nc(-c2c3ccccc3nc3ccccc23)sc1CCOC(=O)c1ccc(N/N=N/c2ccc(C(=O)OCCN3CCCCC3)cc2)cc1
3.2 µM

Look up CC50: O=C(OCCN1CCOCC1)c1ccc(/N=N/Nc2ccc(C(=O)OCCN3CCOCC3)cc2)cc1
6.8 µM
